The values you see were collected from the supplement of paper PMC11316812.

Test system: hTERT-HMEC
Assay: percentage of EdU-negative (G0-arrested) nuclei per well, 72 h; higher = more G0 arrest
Details: protein concentration 0.0257143 µM; reference: sequence is the full UniProt precursor, the tested protein was the secreted form or ectodomain
The entries below come with measured percentage of EdU-negative values attached.
The reply should be a number in %, with the unit left off.

// known answers, use as guide
1. MERVQPLEENVGNAARPRFERNKLLLVASVIQGLGLLLCFTYICLHFSALQVSHRYPRIQSIKVQFTEYKKEKGFILTSQKEDEIMKVQNNSVIINCDGFYLISLKGYFSQEVNISLHYQKDEEPLFQLKKVRSVNSLMVASLTYKDKVYLNVTTDNTSLDDFHVNGGELILIHQNPGEFCVL	5.74
2. MAPPSVPLVLLLVLLLSLAETPASAPAHRGRGGWTLNSAGYLLGPVLHLPQMGDQDGKRETALEILDLWKAIDGLPYSHPPQPSKRNVMETFAKPEIGDLGMLSMKIPKEEDVLKS [Q9UBC7]	5.31

// next item, percentage of EdU-negative requested
Query block: Please tell me: percentage of EdU-negative of MAAARLCLSLLLLSTCVALLLQPLLGAQGAPLEPVYPGDNATPEQMAQYAADLRRYINMLTRPRYGKRHKEDTLAFSEWGSPHAAVPRELSPLDL , system hTERT-HMEC?;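 note: secreted proteins added to cultured cells, EdU pulse at the end, nuclei found by Hoechst imaging, EdU status from nuclear versus surrounding ring intensity ratio, PBS as neutral control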
Result block: 5.37
